Data origin: paper PMC4336329

target: human ether-à-go-go-related gene (hERG) potassium channel (human); assay: primary screen, population patch clamp on CHO cells stably expressing hERG; higher = less effect of the substance
Among all 310,000 compounds or so, about 2,200 (0.71%) showed an effect of 50% or more. Effects have a minus sign here. This excerpt belongs to a sample that is enriched for strong results.
In this section, each of the molecules is paired with its reported hERG current change (%, negative = inhibition) at 1uM.
Property: hERG current change (%, negative = inhibition) at 1uM (%)

- CC(C)Oc1ccc(C(=O)OCC(=O)NCCNC(=O)COC(=O)c2ccc(OC(C)C)cc2)cc1: 8.62
- CC(=O)Nc1ccc(C(=O)Nc2nc(-c3cc(C)n(Cc4ccccc4)c3C)cs2)cc1: 11.3
- CCN(CC)CCOC(=O)c1cc2cc(COC)ccc2o1.CI: 9.98
- Oc1c(Br)cc(/C=N/n2c(-c3ccccc3)n[nH]c2=S)c(Br)c1O: 17.1
- Cc1noc(C)c1COC(=O)c1cccc(S(=O)(=O)N2c3ccccc3CC2C)c1 (centres unmarked): 10.5

* * *

In this section, each of the compounds is paired with its reported hERG current change (%, negative = inhibition) at 1uM.
biological target: human ether-à-go-go-related gene (hERG) potassium channel (human); test: primary screen, population patch clamp on CHO cells stably expressing hERG; higher = less effect of the substance
Screen size: about 310,000 compounds; about 2,200 (0.71%) showed an effect of 50% or more. Effects have a minus sign here. What follows is part of a selection rich in strong results, with near analogues and random picks from the rest.
Property: hERG current change (%, negative = inhibition) at 1uM (%)

- CCCN1CCC(=O)N([C@H](COc2ccccc2)c2ccccc2)CC1: -76.5
- O=C1CCN(Cc2ccccc2)CCN1[C@H](COc1ccccc1)c1ccccc1: 2.66
- CCOC(=O)c1c(NC(=S)Nc2ccc(F)cc2)sc2c1CCC2: -21.8
- CCOCCCNC(=S)Nc1cc(OCC)c(NC(=O)c2ccco2)cc1OCC: 7.7
- Cn1c(NCCc2ccccc2)cc(=O)n(C)c1=O: 11.8
- CCN(CC(=O)Nc1ccc(NC(C)=O)cc1)C(=O)c1cc2c(s1)CCCCC2: 2.11
- CC(C)CN1CCC(=O)N([C@H](COc2ccccc2)c2ccccc2)CC1: -64.3
- COc1ccc(COC(=O)c2ccc(C)c(S(=O)(=O)N3CCOCC3)c2)cc1F: 16
- COc1cccc(/C=C2\SC(N)=NC2=O)c1OS(=O)(=O)c1ccccc1: 2.6
- Cc1ccccc1-n1cc(-c2ccc(Br)cc2)nc1SCC(N)=O: 10.3

* * *

Biological target: human ether-à-go-go-related gene (hERG) potassium channel (human)
Experiment: primary screen, population patch clamp on CHO cells stably expressing hERG; higher = less effect of the substance
Text: Briefly, Chinese hamster ovary (CHO) cells stably expressing the hERG channel were dislodged from tissue culture flasks and dispensed into PPC plates. […] Small molecule effects on hERG current density were quantified by […].
Out of some 310,000 compounds screened, about 2,200 (0.71%) showed an effect of 50% or more. The effect is printed as a negative number. The list comes from a sample in which strong results are over-represented; it also holds close analogues and randomly drawn compounds.
In this section, each of the compounds is paired with its reported hERG current change (%, negative = inhibition) at 1uM.
Property: hERG current change (%, negative = inhibition) at 1uM (%)

* Cc1ccccc1C(=O)NC1CCN(C(=O)N2CCOCC2)CC1 | 12.6
* CC1CC(C)CN(C(=O)c2ccc(C(=O)c3ccccc3)cc2)C1 (stereo not drawn) | -1.23
* CC(COc1ccccc1)N1CCC(CO)(Cc2ccccc2)CC1 (stereo not drawn) | -13.3
* COc1ccc(CC2(CO)CCN(C(=O)NCc3ccccc3)CC2)cc1 | 10.4
* CC(C)CCN(C(=O)Nc1ccc(Cl)cc1)C1CCN(C(C)C)CC1 | -57.6
* CC(C)OCCCn1c(=NC(=O)c2ccncc2)c(C#N)cc2c(=O)n3ccccc3nc21 | -63.4
* COc1ccc(Nc2nnc(SCC(=O)N3CCCC3)s2)cc1 | 7.15
* CCOCCCn1c(=NC(=O)c2cccs2)c(C#N)cc2c(=O)n3ccccc3nc21 | -49.3
* O=C(NCc1ccco1)c1cccc(NS(=O)(=O)c2ccccc2F)c1 | 6.58
* COC(=O)C(C)NS(=O)(=O)c1ccc(NC(C)=O)cc1 (stereo not drawn) | 1.66
* COc1ccc(N2CCN(CC(O)COc3cc(C)ccc3C)CC2)cc1.Cl (stereo not drawn) | -9.86
* CCOC(=O)N1CCC(N2CCCC(C(=O)c3cc(F)ccc3OC)C2)CC1 (stereo not drawn) | -52.2
* COc1cccc(OCC(O)CN2CCN(c3ccc(Cl)cc3)CC2)c1 (stereo not drawn) | -14.1
* CN(C)C(=S)NC(=NCc1ccc([N+](=O)[O-])cc1)c1ccccc1 | -60.3
* CS(=O)(=O)N(Cc1cccc(CN(C(C(=O)O)c2ccccc2)S(C)(=O)=O)c1)C(C(=O)O)c1ccccc1 (stereo not drawn) | 16.9
* COc1ccc(CC2(CO)CCN(C(C)COc3ccccc3)CC2)cc1 (stereo not drawn) | -68.4
* O=C(c1cc2ccccc2[nH]1)N(Cc1cccnc1)CC1CCCN(C2CCCCC2)C1 (stereo not drawn) | -49.6
* COC(=O)c1ccccc1C(=O)N(Cc1cccnc1)CC1CCCN(C2CCCCC2)C1 (stereo not drawn) | -7.49
* COc1ccc(-c2oc3cccnc3c2C#CC2(O)CCCCC2)cc1 | 6.61
* O=C(CCCc1ccccc1)NCc1ccc2c(c1)OCO2 | 8.58
* COc1ccc(F)cc1C(=O)C1CCCN(C(=O)C2=C(C)OCCO2)C1 (stereo not drawn) | 14.5
* CN1CCN(C2=C(Cl)C(=O)N(CCc3ccccc3)C2=O)CC1 | 17.7
* CN(C)S(=O)(=O)N1CCC(CO)(CCc2ccccc2)CC1 | 12
* O=[N+]([O-])c1cccc(C(=NCc2ccccc2)NO)c1 | 15.5
* COc1ccc(N2CCN(CC(O)COc3cc(C)cc(C)c3)CC2)cc1.Cl (stereo not drawn) | -17.5
* O=C(c1cccc(C(F)(F)F)c1)N1CCCC1 | 8.42
* COc1cccc(-c2nc(OC(C)C)c3ccccc3n2)c1 | 7.09
* Cc1ccccc1OCC(O)CN1CCN(c2ccc(Cl)cc2)CC1 (stereo not drawn) | -58.2
* O=C(COC(=O)CCc1ccccc1)NCc1ccccc1 | 12.3
* Cc1ccccc1OCC(O)CN1CCCCC1.Cl (stereo not drawn) | 16.2
* Cc1ccc(NC(=O)CN2C(=O)CCSc3ccc(S(=O)(=O)N4CCCC4)cc32)cc1 | 19
* COc1ccc(F)cc1C(=O)C1CCCN(Cc2ccc(O)cc2)C1 (stereo not drawn) | -25.1
* CCCCN(C(=O)Nc1ccc(Cl)cc1)C1CCN(C(C)=O)CC1 | -19.1
* CCOC(=O)C1=C(C)NC(=S)N(C(C)=O)C1c1ccc(Cl)cc1 (stereo not drawn) | 9.38
* O=C(COC(=O)CCS(=O)(=O)c1ccccc1)Nc1ccccc1 | 0.18
* CCOC(=O)N1CCC(N2CCCC(C(=O)c3ccccc3OC)C2)CC1 (stereo not drawn) | -59.3
* COc1ccc(N2CCN(CC(O)COc3ccc(C)cc3C)CC2)cc1.Cl (stereo not drawn) | -54.6
* CCCCCn1c(=NC(C)=O)c(C#N)cc2c(=O)n3ccccc3nc21 | 0.0455
* Cn1c(CSCc2ccccc2)nnc1SCC(=O)Nc1nccs1 | -17.6
* CC(C)OCCCn1c(=NC(=O)c2cccs2)c(C#N)cc2c(=O)n3ccccc3nc21 | -67.1
* COc1ccccc1C(=O)C1CCCN(C(=O)C2CCCC2)C1 (stereo not drawn) | 8.68
* COc1ccc(CNC(=O)CSc2nnc(-c3cccnc3)n2N)cc1 | 7.27

* * *

In this section, each of the compounds is paired with its reported hERG current change (%, negative = inhibition) at 1uM.
molecular target: human ether-à-go-go-related gene (hERG) potassium channel (human, UniProt Q12809); assay: primary screen, population patch clamp on CHO cells stably expressing hERG; higher = less effect of the substance
Sequence (Q12809 whole entry, looked up): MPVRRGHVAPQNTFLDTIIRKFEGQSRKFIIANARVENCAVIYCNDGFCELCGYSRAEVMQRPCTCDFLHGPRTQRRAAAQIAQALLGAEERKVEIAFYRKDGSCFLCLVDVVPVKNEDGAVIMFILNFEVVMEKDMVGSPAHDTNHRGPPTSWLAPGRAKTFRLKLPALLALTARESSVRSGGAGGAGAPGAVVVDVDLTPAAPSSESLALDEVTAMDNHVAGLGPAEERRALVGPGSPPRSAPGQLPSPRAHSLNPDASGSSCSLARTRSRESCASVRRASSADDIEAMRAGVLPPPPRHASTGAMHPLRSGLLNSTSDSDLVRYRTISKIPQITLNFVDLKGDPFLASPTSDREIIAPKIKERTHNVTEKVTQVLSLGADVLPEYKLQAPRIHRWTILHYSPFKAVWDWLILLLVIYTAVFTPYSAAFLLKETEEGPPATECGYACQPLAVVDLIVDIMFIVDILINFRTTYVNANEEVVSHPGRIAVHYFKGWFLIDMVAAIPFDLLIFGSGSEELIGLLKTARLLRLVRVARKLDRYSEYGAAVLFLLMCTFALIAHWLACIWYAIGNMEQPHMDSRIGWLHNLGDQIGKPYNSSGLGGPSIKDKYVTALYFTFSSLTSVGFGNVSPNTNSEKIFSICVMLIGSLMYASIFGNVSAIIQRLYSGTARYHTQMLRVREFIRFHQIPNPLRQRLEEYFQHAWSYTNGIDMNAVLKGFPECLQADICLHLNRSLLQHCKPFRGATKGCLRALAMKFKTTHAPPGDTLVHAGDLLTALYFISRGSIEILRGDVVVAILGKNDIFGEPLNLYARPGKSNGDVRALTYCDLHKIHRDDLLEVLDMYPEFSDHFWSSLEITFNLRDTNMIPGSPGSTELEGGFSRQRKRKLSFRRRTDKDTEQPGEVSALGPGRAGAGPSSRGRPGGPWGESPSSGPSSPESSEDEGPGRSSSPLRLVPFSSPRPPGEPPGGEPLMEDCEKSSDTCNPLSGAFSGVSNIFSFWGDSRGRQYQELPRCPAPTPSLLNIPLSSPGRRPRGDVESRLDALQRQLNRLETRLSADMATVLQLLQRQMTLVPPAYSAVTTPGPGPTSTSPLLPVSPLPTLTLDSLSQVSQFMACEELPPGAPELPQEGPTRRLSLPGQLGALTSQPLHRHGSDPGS
Among all 310,000 compounds or so, about 2,200 (0.71%) showed an effect of 50% or more. Effects have a minus sign here. The list comes from a sample in which strong results are over-represented; it also holds close analogues and randomly drawn compounds.
Property: hERG current change (%, negative = inhibition) at 1uM (%)

* COc1ccc(/C=C(/NC(=O)c2ccc([N+](=O)[O-])cc2)C(=O)NCCCN(C)C)cc1 | -65.3
* C=CCNC(=O)/C(=C\c1ccc([N+](=O)[O-])cc1)NC(C)=O | 8.68
* COc1ccc(/C=C(\NC(=O)c2ccc([N+](=O)[O-])cc2)C(=O)NCCCn2ccnc2)cc1 | -14.4
* O=C(c1cccc(N2C(=O)C3CC=CCC3C2=O)c1)N1CCCc2ccccc21 (stereo not drawn) | -16.3
* CCOCCCn1c(SCC(=O)NCc2ccco2)nc2c(sc3ccccc32)c1=O | 3.64
* COc1ccc(/C=C(/NC(=O)c2ccc([N+](=O)[O-])cc2)C(=O)NC(C)(C)C)cc1 | -10.7
* O=C(CSc1nc2c(sc3ccccc32)c(=O)n1CCc1ccccc1)NCc1ccco1 | 2.54
* C=CCNC(=O)/C(=C\c1ccc(OC)cc1)NC(=O)c1ccc([N+](=O)[O-])cc1 | -64.7
* O=C(CSc1nc2c(sc3ccccc32)c(=O)n1CCCN1CCCC1)NCc1ccco1 | -70.1
